Target desc: human V2 receptor (Homo sapiens)
Sequence (P30518 whole entry): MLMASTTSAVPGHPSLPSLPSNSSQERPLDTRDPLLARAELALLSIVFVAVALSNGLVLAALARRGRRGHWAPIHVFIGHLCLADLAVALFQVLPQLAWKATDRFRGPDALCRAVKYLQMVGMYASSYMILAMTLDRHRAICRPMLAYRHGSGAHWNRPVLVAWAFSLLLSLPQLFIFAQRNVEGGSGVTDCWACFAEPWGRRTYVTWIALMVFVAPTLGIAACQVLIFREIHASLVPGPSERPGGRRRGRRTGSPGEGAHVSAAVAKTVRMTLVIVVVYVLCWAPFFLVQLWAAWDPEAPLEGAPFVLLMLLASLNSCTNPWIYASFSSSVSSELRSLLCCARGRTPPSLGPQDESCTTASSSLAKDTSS
Measurement notes: Study to confirm the agonism of human V2 receptor (intracellular Ca2+, HEK293 cells coexpressing human V2 receptor and Gqs chimeric protein)
Format: cell-based
Set-up: expressed in transfected cells; host or cells: HEK293 cells (American Type Culture Collection), transient transfection with pCI-neo/hV2 and pLEC-Gqs5
Recorded conditions: maximum response relative to AVP = 1
Recorded endpoint: IA (intrinsic activity)

# Compound, Recorded endpoint, Measured value
measured = [
    ("CCOC(=O)CN1Cc2ccccc2N(C(=O)c2ccc(N3CCCC3)cc2Cl)CC1=O [Example 1-7]", "IA (intrinsic activity)", 0.92),
]

[I] O=C(O)CN1Cc2ccccc2N(C(=O)c2ccc(-c3ccccc3)cc2)CC1=O [Example 31-11]
[II] Cc1nnc(CN2Cc3ccccc3N(C(=O)c3ccc(-n4cccn4)nc3)CC2=O)o1 [Example 1-29]
// compare measured IA (intrinsic activity), left I , right II , return larger When you have decided, please share the label of that item.
II
(II: 0.93, I: 0.35)
